// values below are reported GI50
System: BT-549
Assay: NCI tumour cell line growth inhibition, 48 h
Active and inactive are the calls of the source. No stated cut-off is given here; in the data, active = GI50 up to about 1.1 µM and inactive = higher.

| Molecule | Assayed target | GI50 |
| --- | --- | --- |
| CC(C)Oc1cccc(N2C(Nc3ccccc3)=Nc3ccncc3S2(=O)=O)c1 | BT-549 | 22.4 µM (inactive) |
| O=[N+]([O-])c1ccc2sc(/C=N/c3cnccn3)cc2c1 | BT-549 | 85.7 µM (inactive) |
| C[C@]12CC[C@H]3[C@@H](CC=C4C[C@@H](O)CC[C@@]43C)[C@@H]1C/C(=C\c1cccnc1)[C@@H]2O | BT-549 | 13.5 µM (inactive) |
| O=C1C=CC(=O)c2c(NCC3CC3)ccc(NCC3CC3)c21 | BT-549 | 25.9 µM (inactive) |
| CC(=O)O/C(=C1\C[C@H]2[C@@H]3CC=C4C[C@@H](OC(C)=O)CC[C@]4(C)[C@H]3CC[C@]2(C)C1=O)C(F)(F)F | BT-549 | 12.2 µM (inactive) |
| COC(=O)Cc1c2n(c3ccccc13)C(=O)N1c3ccccc3C(CC(=O)OC)C21 (centres undefined) | BT-549 | 25.5 µM (inactive) |
| COCn1c(C)c(C)c2c(=O)oc(N(C)C)nc21 | BT-549 | > 100 µM (inactive) |
| O=C(NNCC(F)(F)F)c1ccncc1 | BT-549 | > 100 µM (inactive) |
| COC(=O)/C=C/C(=O)Nc1cc(Cl)c(Cl)cc1CC(=O)N(C)[C@H]1CCCC[C@@H]1N1CCCC1 | BT-549 | 12.9 µM (inactive) |

====

System: SK-MEL-2
Assay: NCI tumour cell line growth inhibition, 48 h
The source made the active and inactive calls. No stated cut-off is given here; in the data, active = GI50 up to about 1.1 µM and inactive = higher.
Experimental readout: GI50

| Compound | Result |
| --- | --- |
| CCOC(=O)C12CCSC1C1(C#N)C(C#N)=CC2(N=P(c2ccccc2)(c2ccccc2)c2ccccc2)n2c(=O)n(-c3ccccc3)c(=O)n21 (stereo not given) | 48.6 µM (inactive) |
| CCOCN/C(N)=N\C#N | > 100 µM (inactive) |
| C(=N\Nc1nnc2c(n1)[nH]c1ccccc12)/c1cccnc1 | > 100 µM (inactive) |
| CCOC(=O)NC(C(F)(F)F)(C(F)(F)F)P(=O)(OCC(C)C)OCC(C)C | 14.9 µM (inactive) |
| COc1cc(OC)c2c(=O)c(OC)c(-c3ccc4c(c3)OCO4)oc2c1 | 19.1 µM (inactive) |
| CCC(CCC(C)C1CCC2C3CC=C4CC(OC5OC(CO)C(O)C(O)C5O)CCC4(C)C3CCC12C)C(C)C (stereo not given) | > 100 µM (inactive) |
| CC1c2ccccc2Cn2cc3c(c21)C(=O)c1cccc(OP(=O)(O)OCc2ccccc2)c1C3=O (stereo not given) | > 100 µM (inactive) |
| O=[N+]([O-])c1ccc2sc(/C=N/c3ccc(O)cc3)cc2c1 | 22 µM (inactive) |
| COC(=O)C(Cc1cc(OC)c(OC)c(OC)c1)C(=O)OC | > 320 µM (inactive) |
| COc1ccc(/C=C2/C(=O)C(c3ccccc3)N(c3ccccc3)C2=O)cc1OC (stereo not given) | > 10 µM (inactive) |

====

Measured GI50 accompanies every entry in the list below.
Test system: OVCAR-4
Assay: NCI tumour cell line growth inhibition, 48 h
Activity calls are given as the source filed them. Rule as the data show it: active = GI50 up to about 1.1 µM and inactive = higher.

| Molecule | Assayed target | GI50 |
| --- | --- | --- |
| Nc1cc(C2CCCc3c2[nH]c2ccccc32)ccc1O (stereo not given) | OVCAR-4 | 16.9 µM (inactive) |
| N#CC1=C(N)Oc2c(ccc3cccnc23)C1c1ccccc1 (stereo not given) | OVCAR-4 | 17.2 µM (inactive) |
| CC1=NNC(=S)NCCCN2CCN(CCCNC(=S)NN=C(C)C=NNC(=S)NCCCN3CCN(CCCNC(=S)NN=C1)CC3)CC2 | OVCAR-4 | > 100 µM (inactive) |
| CC(C)Oc1cccc(N2C(Nc3ccccc3)=Nc3ccncc3S2(=O)=O)c1 | OVCAR-4 | 15.6 µM (inactive) |
| Oc1ccc(/C=C/c2cc(O)cc3c2C(c2cc(O)cc(O)c2)C(c2ccc(O)c(O)c2)O3)cc1 (stereo not given) | OVCAR-4 | 16.8 µM (inactive) |

====

Test system: SF-295
Assay: NCI tumour cell line growth inhibition, 48 h
Calls of active or inactive are those of the source. No stated cut-off is given here; in the data, active = GI50 up to about 1.1 µM and inactive = higher.
Classes used: T (active), F (inactive)

| Compound | Class label |
| --- | --- |
| CC1OC(c2ccccc2)=CC(OCc2ccccc2)[C@H]1OCc1ccccc1 (some centres not stated) | F |
| CNC(=O)C(C)Oc1ccc(OCC2CCCCC2)cc1 (configuration not stated) | F |
| O=C1c2cc(CCl)sc2C(=O)c2ccsc21 | T |
| O/N=N\c1nc(-c2cccnc2)nc2ccccc12 | F |
| O=C(O)CCNc1ccccc1C(=O)O | F |
| COc1cccc2c1OC1c3ccccc3OCC1(O)C2 (configuration not stated) | F |
| Cc1nc2nnc(C)n2c2c1C(=O)Nc1ccccc1N2 | F |
| COc1ccc2nc(NC(=O)C(=O)C(C#N)c3ccc(CC#N)cc3)sc2c1 (configuration not stated) | F |
| CC1=C(O)C(=O)c2ccccc2C1=O | F |
| Cc1ccc(/C=C/C(=O)c2sc(-c3cccnc3)nc2C)cc1 | F |
| COc1cc(C[S+]([O-])c2ccc(O)cc2)cc(OC)c1OC (configuration not stated) | F |
| CCCC/C=C1\CCC(CN2CCCC2)C1=O (configuration not stated) | F |

====

Test system: SF-539
Test: NCI tumour cell line growth inhibition, 48 h
Calls of active or inactive are those of the source. No stated cut-off is given here; in the data, active = GI50 up to about 1.1 µM and inactive = higher.
Measured GI50, listed per entry for reference.

| Molecule | GI50 |
| --- | --- |
| COc1cc(C2C(Cl)C(=O)N2c2c(C)n(C)n(-c3ccccc3)c2=O)ccc1O (configuration not stated) | 16.3 µM (inactive) |
| Cc1ccc(NCCO)cc1 | > 100 µM (inactive) |
| CC1(C)N=C(N)N=C(N)N1c1cccc(Cl)c1 | 4.66 µM (inactive) |
| Cc1ccc(C(=O)/C=C2\Nc3ccccc3S\C2=N\CS(=O)(=O)c2ccc(C)cc2)cc1 | > 10 µM (inactive) |
| CN1N=CSC12C(=O)N(c1ccc(Cl)cc1)C(=O)N2c1ccc(Cl)cc1 (configuration not stated) | 5.82 µM (inactive) |
| O=C(O)CC(NC(=O)Nc1ccc([N+](=O)[O-])cc1)C(=O)Nc1ccc([N+](=O)[O-])cc1 (configuration not stated) | > 100 µM (inactive) |
| O=C1Nc2c(Cl)cc(Cl)cc2/C1=N/N=C/c1ccccc1O | 20.6 µM (inactive) |
| CCOC(=O)C1C2C1C1C(C(=O)OCC)C21 (configuration not stated) | > 100 µM (inactive) |
| COc1ccc(C(=O)/C=C2\c3ccccc3C(=O)N2C)cc1 | 64 µM (inactive) |
| CS(=O)(=O)OCCN(CCOS(C)(=O)=O)c1ccc(/C=N/N=c2/nc[nH]c3nc[nH]c23)cc1 | 18.3 µM (inactive) |
| COc1ccc(/C=N/NC(=O)NCCNCCO)cc1 | > 100 µM (inactive) |
| O=[N+]([O-])c1ccc2sc(/C=N/c3cnccn3)cc2c1 | 31.6 µM (inactive) |
| Cn1c(=O)cc(/N=N\c2ccc(Cl)c(Cl)c2)[nH]c1=O | > 100 µM (inactive) |
| O=C1CCC2(c3ccccc3)Nc3ccc(Cl)cc3N12 (configuration not stated) | > 100 µM (inactive) |
| Nc1nc(-c2cccnc2)cc(-c2cc(-c3cccnc3)nc(N)n2)n1 | > 100 µM (inactive) |
| Cc1nc(O)nc(CC(O)(c2ccccc2)c2ccccc2)c1-c1ccccc1 | > 100 µM (inactive) |
| CCOC(=O)c1nc(SC)sc1NC(=O)c1ccc(OC)cc1 | 16.4 µM (inactive) |
| O=C(NNCC(F)(F)F)c1ccncc1 | > 100 µM (inactive) |
| COCn1c(=O)n(C)c(=O)c2c1nc1c(c(=O)n(C)c(=O)n1COC)[n+]2[O-] | 14.6 µM (inactive) |
| C=C(C)C(=O)OC1CCC2(C)C(CCC3C2CCC2(C)C(c4ccc(=O)oc4)CC4OC432)C1 (configuration not stated) | 5.35 µM (inactive) |
| O=C(O)C(F)(OC(F)(F)C(F)(OC(F)(F)C(F)(F)C(F)(F)F)C(F)(F)F)C(F)(F)F (configuration not stated) | > 100 µM (inactive) |
| O=C1N(Cl)C(=O)C(c2ccc(Cl)cc2)(c2ccc(Cl)cc2)N1Cl | > 100 µM (inactive) |
| NC1=NS(=O)(=O)Nc2nc(-c3cccs3)[nH]c21 | > 100 µM (inactive) |
| O=c1ccs[nH]1 | 5.92 µM (inactive) |
| N=C(N)Nc1nc2cc(N)ccc2o1 | > 100 µM (inactive) |
| C/C(=C\CBr)CCC(Br)C(C)(C)Br (configuration not stated) | > 100 µM (inactive) |
| CCN(CC)c1nc(N(C)C)c2ccccc2n1 | 24.3 µM (inactive) |
| Cc1cc(S(=O)(=O)Nc2nc(Nc3ccc(Cl)cc3)n[nH]2)c(S)cc1Cl | > 100 µM (inactive) |
| O=C(CCc1nnc2s/c(=C\c3ccc4c(c3)OCO4)c(=O)n12)Nc1cc(Cl)ccc1Cl | > 100 µM (inactive) |
| COc1ccc(-c2cc(-c3ccco3)c(C#N)c(=S)n2C2OC(COC(C)=O)C(OC(C)=O)C(OC(C)=O)C2OC(C)=O)cc1 (configuration not stated) | 1.85 µM (inactive) |
| COc1ccc(C2=NN(C(=O)c3ccccc3)C(O)(c3cc(F)c(Cl)cc3Cl)C2)cc1OC (configuration not stated) | 43.1 µM (inactive) |
| COc1cccc2c1OC1c3ccccc3OCC1(O)C2 (configuration not stated) | > 100 µM (inactive) |
| COC(=O)Cc1c2n(c3ccccc13)C(=O)N1c3ccccc3C(CC(=O)OC)C21 (configuration not stated) | 16.1 µM (inactive) |
| COC(=O)C1C(O)C(C(=O)OC)C(C)N(C)C1C (configuration not stated) | > 100 µM (inactive) |
| CCc1cccc(C(C)C)c1N1C(=O)C(=O)C(c2nc3ccccc3s2)C(=O)C1=O | > 50 µM (inactive) |
| COc1ccc(/C(=N/Nc2ccccc2)C(c2ccc(OC)cc2)C2OC(=O)c3ccccc32)cc1 (configuration not stated) | > 100 µM (inactive) |
| CC1OC(OC2C(OC(=O)[C@]34CCC(C)(C)C[C@H]3C3=CC[C@@H]5[C@@]6(C)CC[C@H](OC7OC(CO)C(O)C(O)C7OC7OC(CO)C(O)C(O)C7O)C(C)(C)[C@@H]6CC[C@@]5(C)[C@]3(C)CC4)OCC(O)C2O)C(O)C(O)C1OC1OCC(O)C(O)C1O (some centres not stated) | 45.8 µM (inactive) |
| CCOC(=O)NC(=O)c1cn(CCCOC(=O)CCCCCCCCC(=O)OCCCn2cc(C(=O)NC(=O)OCC)c(=O)n(C)c2=O)c(=O)n(C)c1=O | > 68.7 µM (inactive) |
| NCC1CCN(c2nc3ccccc3c3c2CCCC3)CC1 | 4.65 µM (inactive) |
| CC(C)(C)S(=O)OC12CC3CC(CC(C3)C1)C2 (configuration not stated) | > 100 µM (inactive) |
| CC(=O)OCc1nnn2c1CCC2 | > 100 µM (inactive) |
| CN(C)CCNC(=O)c1cccc2c(NC(CCC(N)=O)C(=O)O)c3ccccc3nc12 (configuration not stated) | 5.55 µM (inactive) |
